Below are IC50 values measured for Protein cereblon (Homo sapiens).

Which measured IC50 belongs to O=C1CCC(N2Cc3c(ccc4c3O[C@H](COCc3ccccc3)CO4)C2=O)C(=O)N1 (some centres not stated) , tested on Protein cereblon (Homo sapiens)?
800 nM

Which measured IC50 belongs to O=C1CCC(N2Cc3c(ccc4c3O[C@@H](COCc3ccccc3)CO4)C2=O)C(=O)N1 (some centres not stated) , tested on Protein cereblon (Homo sapiens)?
580 nM

Where these numbers come from: BindingDB's records for patent US20240059711
